Recorded OD450 nm (P.E. binding ELISA) by entry
Subject Of Test: T1, human IL-2Rβ (human, UniProt P14784 27-240, limits assumed)
T1 construct: Recombinant human IL-2Rβ protein, coated on ELISA plates or immobilized on a CM5 chip; also called hu IL-2R; interleukin 2 receptor β-chain
T1 sequence: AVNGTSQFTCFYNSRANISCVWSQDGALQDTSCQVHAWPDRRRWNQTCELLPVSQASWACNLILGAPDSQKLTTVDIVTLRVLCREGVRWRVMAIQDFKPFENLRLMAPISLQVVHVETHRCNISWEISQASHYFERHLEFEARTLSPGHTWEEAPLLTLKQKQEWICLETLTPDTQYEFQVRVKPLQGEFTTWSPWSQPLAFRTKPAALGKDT
Measurement Notes: P.E. binding ELISA, human IL-2Rβ coated
The reply should contain only the number, in OD450 nm.

Examples with answers:
Binder	Reported Value
FJ1427_P035MP06B05 (VHH, Soluble VHH in periplasmic extract (P.E.); also called Clone nr) VHH: QVQLVESGGGLVQAGGSLRLSCAASGDVFVRYTMAWFRQAPGKEREFVASVTDSGRTTDYVDSVKGRFTVSRDNAKNTVYLQMNNLKPEDTAVYYCAANTDYFQIRSLEFNTWGQGTQVTVSS	0.617
FJ1427_P035MP06D06 (VHH, Soluble VHH in periplasmic extract (P.E.); also called Clone nr) VHH: EVQLVESGGGLVQAGGSLRLSCAVSGDVFVRYTMAWFRQAPGKEREFVASVTDSGRTTEYVDSVKGRFTVSRDNAKNTAYLQMNNLKPEDTAVYYCAANTDYFQIRSLDLNTWGQGTQVTVSS	0.289
FJ1427 P035MP06A08 (VHH, Soluble VHH in periplasmic extract (P.E.); also called Clone nr) VHH: EVQLVESGGGLVQAGESLRLSCAASGQYFSTYSMAWFRRTPGKEREFVTIISESGGIKEYVDSVKGRFTVSRDNAKNTVYLQMNSLKPEDTAVYYCAAARDWFARNEYQYDYWGQGTQVTVSS	0.44
FJ1427_P035MP06H04 (VHH, Soluble VHH in periplasmic extract (P.E.); also called Clone nr) VHH: EVQLVESGGGLVQAGGSLRLSCAVSGDVFVRYTMAWFRQAPGKEREFVASVTDSGRTTEYVDSVKGRFTVSRDNAKNTAYLQMNNLKPEDTAVYYCAANTDYFQIRSLDLNTWGQGTQVTVSS	1.02

Input FJ1427_P035MP06C04 (VHH, Soluble VHH in periplasmic extract (P.E.); also called Clone nr) VHH: QVQLQESGGGLVQAGGSLRLSCAASGDVFVRYTMAWFRQAPGKEREFVASVTDSGRTTDYVDSVKGRFTVSRDNAKNTVYLQMNNLKPEDTAVYYCAANTDYFQIRSLEFNTWGQGTQVTVSS . Output OD450 nm (P.E. binding ELISA): 0.187

FJ1427_P035MP06G02 (VHH, Soluble VHH in periplasmic extract (P.E.); also called Clone nr) VHH: EVQLVESGGGLVQAGGSLRLSCVVSGDVFVRYTMAWFRQAPRKEREFVAVVTDSGRTTEYVDSVKGRFTVSRDNAKNTVYLQMNNLKPEDTAVYYCAANTDYFQIRSVDNNAWGQGTQVTVSS yielded OD450 nm (P.E. binding ELISA) of 0.677

So, FJ1427 P035MP06G09 (VHH, Soluble VHH in periplasmic extract (P.E.); also called Clone nr; 551) VHH: QVQLVESGGGLVQPGGSLRLSCAASGDVFVRYTMAWFRQAPGKEREFVASVTDSGRTTDYVDSVKGRFTVSRDNAKNTVYLQMNNLKPEDTAVYYCAANTDYFQIKSLDRNTWGQGTQVTVSS ? Its OD450 nm (P.E. binding ELISA) was 0.202

Given item FJ1427_P035MP06F02 (VHH, Soluble VHH in periplasmic extract (P.E.); also called Clone nr) VHH: QVQLQESGGGLVQAGGSLRLSCAASGDVFVRYTMAWFRQAPGKEREFVASVTDSGRTTDYVDSVKGRFTVSRDNAKNTVYLQMNALKPEDTAVYYCAANTDYFQIKSLDLNTWGQGTQVTVSS , the value recorded as its OD450 nm (P.E. binding ELISA) is 0.278
